# Procedure summary: NK cytotoxicity assay (NK:HT1080-luc co-culture, luciferase readout)
# Format: cell-based, human
# Test conditions: NK:HT1080-luc co-culture, 24 hours; FIG. 9; read-out: EC50 NK cytotoxicity (tumor cell killing)
Starred links: 1 amine or outer side, 2 acyl side, 3 side chain; linkers in the order of their positions; H or OH if unused. Positions of bridges follow the written chain, without caps; N, C: chain ends. Non-standard residues stand in square brackets, D forms with d. Chains are numbered I, II in the order given. No end group written: not given here. X1 = O=C(CCOCCOCCOCCN(CCOCCOCCOCCn1cc(CCC(=O)[*:2])nn1)CCOCCOCCOCCn1cc(CCC(=O)[*:3])nn1)[*:1]; TATA = O=C(CC[*:1])N1CN(C(=O)CC[*:2])CN(C(=O)CC[*:3])C1; Hyp = O=C(O)[C@@H]1C[C@@H](O)CN1; hArg = N=C(N)NCCCC[C@H](N)C(=O)O
Assay metric: EC50 (nM)
Report as a plain number; the unit nM is understood.

For the substance I: A[hArg]DC[Hyp]LVNPLCLHP[dD]W[hArg]C-NH2 / II: ACNLQAPCMQTGKVCAK-NH2 / III: ACNLQAPCMQTGKVCAK-NH2 (linker I:4-I:11-I:18, II:2-II:8-II:15, III:2-III:8-III:15 via TATA; linker I:N-II:17-III:17 via X1; C-terminus assumed) [BCY15924] , give its reported EC50.
0.5
